Details: rat, in vivo, sc, 50 mg/kg
e = 2'-O-(2-methoxyethyl) (MOE); d = 2'-deoxy (DNA)

substance	unit_label	Bilirubin
ISIS 416867: MOE gapmer, nucleobases 1275 to 1318 of SEQ ID NO: 1 (Table 8) (antisense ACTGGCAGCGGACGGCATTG; MOE gapmer, wing and gap sizes not given here)	mg/dL	0.17
ISIS 413481: 5-10-5 MOE gapmer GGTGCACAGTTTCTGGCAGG (sugars from the 5' end e5 d10 e5, backbone and methylation of C not given here)	mg/dL	0.22
ISIS 416860: MOE gapmer, nucleobases 1275 to 1318 of SEQ ID NO: 1 (Table 8) (antisense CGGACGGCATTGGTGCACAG; MOE gapmer, wing and gap sizes not given here)	mg/dL	0.15
ISIS 416861: MOE gapmer, nucleobases 1275 to 1318 of SEQ ID NO: 1 (Table 8) (antisense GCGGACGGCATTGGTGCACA; MOE gapmer, wing and gap sizes not given here)	mg/dL	0.15
ISIS 416866: MOE gapmer, nucleobases 1275 to 1318 of SEQ ID NO: 1 (Table 8) (antisense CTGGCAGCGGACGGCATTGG; MOE gapmer, wing and gap sizes not given here)	mg/dL	0.16
ISIS 412224: 5-10-5 MOE gapmer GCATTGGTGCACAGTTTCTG (sugars from the 5' end e5 d10 e5, backbone and methylation of C not given here)	mg/dL	0.12
